# System: DIPGX37 (H3.3 K27M diffuse intrinsic pontine glioma line)
# Assay info: area under dose-response curve of % growth inhibition (log2 RLU vs DMSO / staurosporine), 1e-11 to 1e-4 M (% x log10 M); higher = more growth inhibition
Kind request: treat 70 as inclusive, so area under dose-response curve at 70 or higher is MET, anything lower is NOT MET.

Here's what some known entries look like.
CN(Cc1cnc2nc(N)nc(N)c2n1)c1ccc(C(=O)N[C@@H](CCC(=O)O)C(=O)O)cc1 [METHOTREXATE]; NOT MET
CC(=O)c1ccc2c(c1)c1cc(C(C)=O)ccc1n2CCNC(C)C; MET
Cc1ccc(NC(=O)c2ccc(CN3CCN(C)CC3)cc2)cc1Nc1nc(-c2cccnc2)cs1; NOT MET
CC(C(O)c1ccc(O)cc1)N1CCC(Cc2ccccc2)CC1 (configuration not stated); NOT MET

query: Assess whether reported area under dose-response curve for C[C@@H]1O[C@@H](O[C@H]2C[C@@H](O)[C@]3(CO)[C@H]4[C@H](O)C[C@]5(C)[C@@H](C6=CC(=O)OC6)CC[C@]5(O)[C@@H]4CC[C@]3(O)C2)[C@H](O)[C@H](O)[C@H]1O sits at 70 or higher.
result: MET

query: Assess whether reported area under dose-response curve for CN1CCN(c2ccc(-c3cccc(CN4CCOCC4)c3)cc2NC(=O)c2c[nH]c(=O)cc2C(F)(F)F)CC1 sits at 70 or higher.
result: NOT MET

* * *

# System: HGGX39 (paediatric high-grade glioma line)
# Assay info: area under dose-response curve of % growth inhibition (log2 RLU vs DMSO / staurosporine), 1e-11 to 1e-4 M (% x log10 M); higher = more growth inhibition
Kind request: treat 40 as inclusive, so area under dose-response curve at 40 or higher is 1.0, anything lower is 0.0.

Here's what some known entries look like.
COc1ccc(-c2nc(N3CCOCC3)c3sc(CN(C)c4ncc(C(=O)NO)cn4)cc3n2)cn1 [CUDC-907]; 1.0
O=C1NCCc2[nH]c(-c3ccncc3)cc21; 1.0
CC(C)c1nc(N(C)S(C)(=O)=O)nc(-c2ccc(F)cc2)c1/C=C/[C@@H](O)C[C@@H](O)CC(=O)O [ROSUVASTATIN]; 1.0

query: Assess whether reported area under dose-response curve for Cc1nc(Nc2ncc(C(=O)Nc3c(C)cccc3Cl)s2)cc(N2CCN(CCO)CC2)n1 [DASATINIB] sits at 40 or higher.
result: 1.0

* * *

Reported values of area under dose-response curve for individual entries
# Tested on: DIPGX37
# Assay info: area under dose-response curve of % growth inhibition (log2 RLU vs DMSO / staurosporine), 1e-11 to 1e-4 M (% x log10 M); higher = more growth inhibition
Format: numeric value only, no unit, no commentary.

Examples with answers:
COc1cc(-c2cn(C)c(=O)c3cnccc23)c(OC)cc1CN(C)C; 11.6
CC(C)NC[C@@H](C(=O)N1CCN(c2ncnc3c2[C@H](C)C[C@H]3O)CC1)c1ccc(Cl)cc1; 25.8
COC(=O)[C@]12CCC(C)(C)C[C@H]1[C@H]1C(=O)C=C3[C@@]4(C)C=C(C#N)C(=O)C(C)(C)[C@@H]4CC[C@@]3(C)[C@]1(C)CC2; 185
COC(=O)Nc1nc2cc(C(=O)c3ccccc3)ccc2[nH]1; 94.4
CC/C(=C(\c1ccccc1)c1ccc(OCCN(C)C)cc1)c1ccccc1; 50.8

query: Form field: reported area under dose-response curve of CO[C@H]1C[C@@H]2CC[C@@H](C)[C@@](O)(O2)C(=O)C(=O)N2CCCC[C@H]2C(=O)O[C@H]([C@H](C)C[C@@H]2CC[C@@H](O)[C@H](OC)C2)CC(=O)[C@H](C)/C=C(\C)[C@@H](O)[C@@H](OC)C(=O)[C@H](C)C[C@H](C)/C=C/C=C/C=C/1C
result: 59.1

query: Form field: reported area under dose-response curve of COc1ccccc1-c1cc(Nc2cccc(CS(N)(=O)=O)c2)ncn1
result: 39.8

meta.source: the supplement of paper PMC8253809
